# TARGET: MMP-2 (Homo sapiens, UniProt P08253)
# Construct: All the enzymes are recombinant human active domains from E. coli (Biomol); purchased Biomol; host or cells: E. coli
# Sequence (P08253 110-446 limits assumed): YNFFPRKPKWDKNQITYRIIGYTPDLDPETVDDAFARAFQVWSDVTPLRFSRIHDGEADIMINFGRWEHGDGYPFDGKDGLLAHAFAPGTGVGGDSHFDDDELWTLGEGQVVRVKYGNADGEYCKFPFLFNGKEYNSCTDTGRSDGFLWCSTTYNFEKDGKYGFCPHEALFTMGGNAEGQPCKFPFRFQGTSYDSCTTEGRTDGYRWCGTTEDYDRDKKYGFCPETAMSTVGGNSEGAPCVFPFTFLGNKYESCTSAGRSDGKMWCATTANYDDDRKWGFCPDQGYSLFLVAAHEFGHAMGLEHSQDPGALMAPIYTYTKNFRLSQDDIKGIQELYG
# PROTOCOL_SUMMARY: MMP inhibitory assay, fluorescent substrate, MMP-2
# Assay type: biochemical
# EXPERIMENTAL_SETUP: recombinant human active domain, substrate 4 uM, room temperature
hey, just use true (1) if measured IC50 is less than 1000 nM, otherwise false (0)

Prompt: For O=C1NC(=O)C(c2occc2Sc2ccc(OCc3ccc(Cl)cc3)cc2)N1 (centres unmarked) [IVh] , is the recorded IC50 below the cut-off of 1000 nM?
Completion: true (1)

Prompt: # strict comparison: is reported IC50 < 1000 nM? input = COc1ccc(COc2ccc(Sc3ccoc3C3NC(=O)NC3=O)cc2)cc1 (centres unmarked) [IVd]
Completion: true (1)

Prompt: Determine if O=C1NC(=O)C(c2occc2Sc2ccc(OCc3ccccc3Cl)cc2)N1 (centres unmarked) [IVj] shows IC50 strictly lower than 1000 nM.
Completion: false (0)

Prompt: Is the reported IC50 for Cc1ccccc1COc1ccc(Sc2ccoc2C2NC(=O)NC2=O)cc1 (centres unmarked) [IVp] strictly below 1000 nM?
Completion: false (0)
